Measured Kd, listed per entry.
# system_name: Axl (human, UniProt P30530 26-449, biotinylated (site not stated))
# Sequence (P30530 whole entry): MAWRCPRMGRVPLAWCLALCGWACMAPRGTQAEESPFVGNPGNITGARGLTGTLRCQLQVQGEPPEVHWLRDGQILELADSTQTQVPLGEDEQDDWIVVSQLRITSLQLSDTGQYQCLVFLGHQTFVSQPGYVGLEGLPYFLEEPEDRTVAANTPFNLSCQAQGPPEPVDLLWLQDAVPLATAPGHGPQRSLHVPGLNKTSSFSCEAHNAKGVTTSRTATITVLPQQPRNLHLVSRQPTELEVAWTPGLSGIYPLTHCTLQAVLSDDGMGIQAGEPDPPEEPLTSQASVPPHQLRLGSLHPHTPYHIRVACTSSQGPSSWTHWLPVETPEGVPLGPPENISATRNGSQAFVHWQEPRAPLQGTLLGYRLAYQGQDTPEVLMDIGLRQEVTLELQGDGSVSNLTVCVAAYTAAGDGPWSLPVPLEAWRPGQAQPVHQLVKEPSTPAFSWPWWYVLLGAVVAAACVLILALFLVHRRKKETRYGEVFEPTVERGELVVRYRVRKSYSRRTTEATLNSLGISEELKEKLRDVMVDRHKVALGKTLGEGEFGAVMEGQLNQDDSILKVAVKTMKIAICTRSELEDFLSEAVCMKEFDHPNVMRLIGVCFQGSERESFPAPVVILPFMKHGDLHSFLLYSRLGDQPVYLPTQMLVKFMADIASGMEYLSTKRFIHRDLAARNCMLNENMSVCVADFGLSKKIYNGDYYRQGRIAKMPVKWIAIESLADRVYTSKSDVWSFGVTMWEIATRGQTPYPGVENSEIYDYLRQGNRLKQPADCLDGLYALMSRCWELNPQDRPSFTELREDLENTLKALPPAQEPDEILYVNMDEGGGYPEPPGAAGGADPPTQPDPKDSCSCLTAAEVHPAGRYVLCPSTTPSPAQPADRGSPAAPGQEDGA
# experiment_description: BLI
experimental_endpoint: Kd (nM)

* Ab303 (antibody, V domains shown) VH: EVQLVESGGGVVQPGRSLRLSCAASGFTFSDYWMEWVRQAPGKGLEWVAEIRNKVNNYATYYGKSVKGRFTISRDNSKNTLYLQMNSLRAEDTAVYYCNTLRLFAYWGQGTLVTVSS VL: DIQMTQSPSSLSASVGDRVTITCRSSKSLLHRQGITYVYWYQQKPGKVPKLLIYRMSTLASGVPSRFSGSGSGTDFTLTISSLQPEDVATYYCGQLLENPYTFGQGTKLEIK | 0.386
* Ab301 (antibody, V domains shown) VH: EVKLEASGGGLVQPGMSVKLSCTTSGFTFSDYWMEWVRQAPGKGLEWVAEIRNKVNNYATYYGKSVKGRFTISRDDSKSIVYLQMNSIRSEDTGIYYCNTLRLFAYWGQGTLVTVSA VL: DIVMTQAPLSISVTPGESPSMSCRSSKSLLHRNGITYVYWYLQKPGKSPQLLIYRMSTLASGVPDRFSGSGSETDFTLKINKVEAEDVGIYYCGQLLENPYTFGAGTRLEIK | 0.466
* Ab302 (antibody, V domains shown) VH: EVQLVESGGGLVKPGGSLKLSCAASGFTFSDYWMEWVRQAPGKGLEWVAEIRNKVNNYATYYGKSVKGRFTISRDDSKNTLYLQMNSLKTEDTAVYYCNTLRLFAYWGQGTLVTVSS VL: DIQMTQSPSSLSASVGDRVTITCRSSKSLLHRQGITYVYWYQQKPGKVPKLLIYRMSTLASGVPSRFSGSGSGTDFTLTISSLQPEDVATYYCGQLLENPYTFGQGTKLEIK | 0.705
* Ab305 (antibody, V domains shown) VH: EVQLVESGGGLVQPGRSLRLSCTASGFTFSDYWMEWVRQAPGKGLEWVGEIRNKVNNYATYYGKSVKGRFTISRDDSKSIAYLQMNSLKTEDTAVYYCNTLRLFAYWGQGTLVTVSA VL: DIQMTQSPSSLSASVGDRVTITCRSSKSLLHRQGITYVYWYQQKPGKVPKLLIYRMSTLASGVPSRFSGSGSGTDFTLTISSLQPEDVATYYCGQLLENPYTFGQGTKLEIK | 1.55
* Ab304 (antibody, V domains shown) VH: EVQLVESGGGLVQPGGSLRLSCAASGFTFSDYWMEWVRQAPGKGLEWVGEIRNKVNNYATYYGKSVKGRFTISRDESKNSLYLQMNSLKTEDTAVYYCNTLRLFAYWGQGTTVTVSS VL: DIQMTQSPSSLSASVGDRVTITCRSSKSLLHRQGITYVYWYQQKPGKVPKLLIYRMSTLASGVPSRFSGSGSGTDFTLTISSLQPEDVATYYCGQLLENPYTFGQGTKLEIK | 0.909
